System: Becker (Low Grade Glioma)
PROTOCOL DESCRIPTION: Bliss excess, mean over the matrix (fraction); higher = more synergy;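 further: after 72 h of two-drug dosing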
Label F if Bliss excess falls below -0.02; label T in every other case.

>>> classification("Cc1c2c(nn1C)CSCc1cc(n(C)n1)CSc1cc(c3ccccc3c1)OCCCc1c(C(=O)O)n(C)c3c-2c(Cl)ccc13 [AZD5991] + CC(=O)O[C@H]1C(=O)[C@@]2(C)[C@H]([C@H](OC(=O)c3ccccc3)[C@]3(O)C[C@H](OC(=O)[C@H](O)[C@@H](NC(=O)c4ccccc4)c4ccccc4)C(C)=C1C3(C)C)[C@]1(OC(C)=O)CO[C@@H]1C[C@@H]2O [Paclitaxel] (first compound max 1 µM, 7x7, partner max 3 µM)")
"T"
>>> classification("C[C@@H](Nc1cc(F)cc(F)c1)c1cc(C(=O)N(C)C)cc2c(=O)cc(N3CCOCC3)oc12 [AZD8186] + CC(=O)c1c(C)c2cnc(Nc3ccc(N4CCNCC4)cn3)nc2n(C2CCCC2)c1=O [Palbociclib] (first compound max 10 µM, 7x7, partner max 10 µM)")
"T"
>>> classification("COc1cccc2c1C(=O)c1c(O)c3c(c(O)c1C2=O)C[C@@](O)(C(=O)CO)C[C@@H]3O[C@H]1C[C@H](N)[C@H](O)[C@H](C)O1 [Doxorubicin] + Cc1cc2ncnn2cc1Nc1ncc2c(n1)n(C1CCOCC1)c(=O)n2C [AZD7648] (first compound max 1 µM, 7x7, partner max 10 µM)")
"T"
>>> classification("COc1nnc2ccc(N3CCC(c4ccc(OCCN5CCN(C)C(=O)[C@H]5C)cc4)CC3)nn12 [AZD5153] + C[C@@H]1COCCN1C2=NC(=NC(=C2)C3(CC3)[S@](=N)(=O)C)C4=C5C=CNC5=NC=C4 [AZD6738] (first compound max 1 µM, 7x7, partner max 10 µM)")
"T"
>>> classification("CC1(C)CCC(CN2CCN(c3ccc(C(=O)NS(=O)(=O)c4ccc(NCC5CCOCC5)c([N+](=O)[O-])c4)c(Oc4cnc5[nH]ccc5c4)c3)CC2)=C(c2ccc(Cl)cc2)C1 [Venetoclax] + CS(=O)(=O)CCNCc1ccc(-c2ccc3ncnc(Nc4ccc(OCc5cccc(F)c5)c(Cl)c4)c3c2)o1 [Lapatinib] (first compound max 1 µM, 7x7, partner max 10 µM)")
"T"

Next molecule, please.
I'd appreciate it if you could say whether CN(C)CCCOc1ccc(-c2ccc3ncc4c(c3c2)n(C2CCOCC2)c(=O)n4C)cn1 [AZD0156] + O=C(c1cc(Cc2n[nH]c(=O)c3ccccc23)ccc1F)N1CCN(C(=O)C2CC2)CC1 [Olaparib] (first compound max 3 µM, partner max 3 µM) has Bliss excess at least equal to -0.02.
F

* * *

System: SW684 (Other Solid Carcinomas)
PROTOCOL DESCRIPTION: Bliss excess, mean over the matrix (fraction); higher = more synergy
Each item that follows carries a reported Bliss excess.
Number only, please.

Some solved entries appear below for comparison.
>>> numeric_value("CS(=O)(=O)CCNCc1ccc(-c2ccc3ncnc(Nc4ccc(OCc5cccc(F)c5)c(Cl)c4)c3c2)o1 [Lapatinib] + C[C@@H](Oc1cc(-c2cnn(C3CCNCC3)c2)cnc1N)c1c(Cl)ccc(F)c1Cl [Crizotinib] (first compound max 10 µM, 7x7, partner max 10 µM)")
-0.0389
>>> numeric_value("Cc1cc2ncnn2cc1Nc1ncc2c(n1)n(C1CCOCC1)c(=O)n2C [AZD7648] + C[C@@H]1COCCN1C2=NC(=NC(=C2)C3(CC3)[S@](=N)(=O)C)C4=C5C=CNC5=NC=C4 [AZD6738] (first compound max 10 µM, 7x7, partner max 10 µM)")
-0.0272
>>> numeric_value("Cc1c2c(nn1C)CSCc1cc(n(C)n1)CSc1cc(c3ccccc3c1)OCCCc1c(C(=O)O)n(C)c3c-2c(Cl)ccc13 [AZD5991] + Cn1cnc2c(F)c(Nc3ccc(Br)cc3Cl)c(C(=O)NOCCO)cc21 [Selumetinib] (first compound max 1 µM, 7x7, partner max 3 µM)")
-0.0091
>>> numeric_value("CN(C)CCCOc1ccc(-c2ccc3ncc4c(c3c2)n(C2CCOCC2)c(=O)n4C)cn1 [AZD0156] + O=C(c1cc(Cc2n[nH]c(=O)c3ccccc23)ccc1F)N1CCN(C(=O)C2CC2)CC1 [Olaparib] (first compound max 3 µM, partner max 3 µM)")
-0.0388
>>> numeric_value("COc1cccc(OCCCN)c1-c1cc(Nc2cnc(C#N)cn2)n[nH]1 [Prexasertib] + C=CCn1c(=O)c2cnc(Nc3ccc(N4CCN(C)CC4)cc3)nc2n1-c1cccc(C(C)(C)O)n1 [AZD1775] (first compound max 1 µM, partner max 1 µM)")
0.0798
>>> numeric_value("CC(=O)Nc1cccc(-n2c(=O)n(C3CC3)c(=O)c3c(Nc4ccc(I)cc4F)n(C)c(=O)c(C)c32)c1 [Trametinib] + Cc1nc(-c2cn3c(n2)-c2ccc(-c4cnn(C(C)(C)C(N)=O)c4)cc2OCC3)n(C(C)C)n1 [Taselisib] (first compound max 1 µM, 7x7, partner max 10 µM)")
0.161

Sure, the documented Bliss excess for O=C(c1cc(Cc2n[nH]c(=O)c3ccccc23)ccc1F)N1CCN(C(=O)C2CC2)CC1 [Olaparib] + COc1nnc2ccc(N3CCC(c4ccc(OCCN5CCN(C)C(=O)[C@H]5C)cc4)CC3)nn12 [AZD5153] (first compound max 10 µM, 7x7, partner max 1 µM) is -0.0857
